Recorded measurements of pIC50, one per entry
- Test system: pSTAT6 in BEAS-2B human cell line
- Experimental Protocol: Inhibition of IL-13 induced pSTAT6 in BEAS
- Assay type: cell-based
- Test Parameters: Homo sapiens, BEAS-2B, 0.5 h; IL-13 trigger, 30 min; parent compound
- Method: BEAS-2B human cell line was seeded (100.000 cells/well) and incubated for 48 h at 37° C., 5% CO2, 95% humidity. Compounds were added and incubated 30 min followed by IL-13 as trigger. After 30 min incubation, cells were lysed and pSTAT6 determined by Fastscan phospho-stat6 (Tyr641) sandwich ELISA kit (cell signaling). Inhibitors were tested at 11 consecutive 5-fold dilutions starting from 10 μM (10 μM-40 μM) in duplicate. […]
pIC50: −log10 of the molar value.

# Molecule, pIC50
rows = [
    ("COc1cc2c(cc1-n1nc(C(=O)NCCN3CCC(C(=O)OCC4CN(C)CCO4)CC3)c3cnc(-c4cnn5cccnc45)cc31)OCCN2 (stereo not shown)", "≥ 8.30"),
    ("COc1cc2c(cc1-n1nc(C(=O)NCCN3CCC(C(=O)OCC(C)(C)C#N)CC3)c3cnc(-c4cnn5cccnc45)cc31)OCCN2", "≥ 8.30"),
    ("COc1cc2c(cc1-n1nc(C(=O)NCCN3CCC(C(=O)OC4CC4)CC3)c3cnc(-c4cnn5cccnc45)cc31)OCCN2", "≥ 8.30"),
    ("COc1cc2c(cc1-n1nc(C(=O)OCCCN(C)C)c3cnc(-c4cnn5cccnc45)cc31)SCCN2", "≥ 8.30"),
    ("COc1cc2c(cc1-n1nc(C(=O)NCCN3CCC(C(=O)O[C@@H]4CN(C)C[C@H]4F)CC3)c3cnc(-c4cnn5cccnc45)cc31)OCCN2 (relative stereo)", "7.30 to 8.30"),
    ("COCCOC(=O)C1CCN(CCNC(=O)c2nn(-c3cc4c(cc3OC)NCCO4)c3cc(-c4cnn5cccnc45)ncc23)CC1", "≥ 8.30"),
    ("CCOC(=O)COC(=O)Nc1nn(-c2cc3c(cc2OC)NCCO3)c2cc(-c3cnn4cccnc34)ncc12", "7.30 to 8.30"),
    ("CCOC(=O)[C@H]1CCN(CCNC(=O)c2nn(-c3cc4c(cc3OC)NCCO4)c3cc(-c4cnn5cccnc45)ncc23)C1", "7.30 to 8.30"),
    ("COc1cc2c(cc1-n1nc(C(=O)NCCN3CCC(C(=O)OCCCC#N)CC3)c3cnc(-c4cnn5cccnc45)cc31)OCCN2", "≥ 8.30"),
    ("COc1cc2c(cc1-n1nc(C(=O)NCCN3CCC(C(=O)OC4CN(C(C)C)C4)CC3)c3cnc(-c4cnn5cccnc45)cc31)OCCN2", "7.30 to 8.30"),
    ("COC(=O)[C@@H]1CCN(CCNC(=O)c2nn(-c3cc4c(cc3OC)NCCO4)c3cc(-c4cnn5cccnc45)ncc23)C1", "≥ 8.30"),
    ("COc1cc2c(cc1-n1nc(C(=O)NCCN3CC[C@H](C(=O)O[C@@H]4CCN(C)C4)C3)c3cnc(-c4cnn5cccnc45)cc31)OCCN2", "7.30 to 8.30"),
    ("CCOC(=O)[C@H]1[C@@H]2CN(CCNC(=O)c3nn(-c4cc5c(cc4OC)NCCO5)c4cc(-c5cnn6cccnc56)ncc34)C[C@@H]21", "7.30 to 8.30"),
]
